Test system: CAKI-1 renal
assay-remarks: NCI tumour cell line growth inhibition, 48 h
value-kind: TGI

Briefly, TGI measured for COc1ccc(-c2c[nH]c(C(=O)O)c2-c2cc(OC)c(OC)c(OC)c2)cc1 : > 100 µM

Briefly, TGI measured for COc1cc2c(c(OC)c1OC)-c1ccc(SC)c(=O)cc1C(CO)C2 (centres undefined) : > 100 µM

Briefly, TGI measured for CCOc1ccccc1N1C(=O)C(=O)C(c2nc3ccccc3o2)C(=O)C1=O : > 100 µM

Briefly, TGI measured for O=C(NC1=NCC(CN2CCN(c3ccccc3)CC2)O1)Nc1ccccc1 (centres undefined) : > 100 µM

Briefly, TGI measured for COc1ccc(-c2c(C#N)c(N)n(C3OCC(OC(C)=O)C(OC(C)=O)C3OC(C)=O)c(=S)c2C#N)cc1 (centres undefined) : > 100 µM

Briefly, TGI measured for COC(=O)C1(C(=O)OC)Cc2ccc(OC)cc2C2=C1C(=O)c1ccccc1C2=O : 7.72 µM

Briefly, TGI measured for c1ccc2[nH]c(-c3ccc(-c4nccc5c4[nH]c4ccccc45)cc3)nc2c1 : 7.11 µM

Briefly, TGI measured for CCCCCCCCCCCCCCCCCCNc1ccn(C2OC(COP(=O)(O)OCC3OC(n4cc(F)c(=O)[nH]c4=O)CC3O)C(O)C2O)c(=O)n1 (centres undefined) : > 100 µM

Briefly, TGI measured for Cc1cc(=O)[nH]c(-n2[nH]c(C)c(CCO)c2=O)n1 : > 100 µM

Briefly, TGI measured for CCc1cc(C(=O)OC)cn1C(=N)c1ccc(Cl)cc1 : > 100 µM

Briefly, TGI measured for Nc1ccnc(=O)[nH]1 : > 100 µM

Briefly, TGI measured for COC(=O)/C=C(/C)n1nc2ccccc2n1 : > 100 µM

Briefly, TGI measured for CCS(CC)(CC)CC1CCCC2=CCC(P(=O)(c3ccccc3)c3ccccc3)CC21 (centres undefined) : 24.4 µM

Briefly, TGI measured for CC(C)(C)c1ccc(Oc2nccc(-c3c(-c4ccc(F)cc4)ncn3C3CCNCC3)n2)cc1 : 7.64 µM

Briefly, TGI measured for Oc1ccccc1/C=C/c1csnn1 : > 100 µM

Briefly, TGI measured for O=[N+]([O-])c1cc(C(F)(F)F)cc([N+](=O)[O-])c1CCl : 7.37 µM

Briefly, TGI measured for COC(=O)[C@@H]1CN(C(C)=O)C(=O)N1 : > 100 µM

Briefly, TGI measured for C[N+](C)(C)CC(=O)N/N=C/c1oc(-c2c(O)ccc3ccccc23)c(-c2c(O)ccc3ccccc23)c1[N+](=O)[O-] : 75.5 µM

Briefly, TGI measured for CN[C@@H](C)C(=O)N[C@H](C(=O)N1CCC[C@H]1C(=O)Nc1snnc1-c1ccccc1)C1CCCCC1 : > 100 µM
